Reported ED values for a set of molecules
tested.on: UniProtKB P30560
experiment.notes: Anti-vasopressor activity at V1a receptor
Unit nM/kg implied. Number only.

# structure, unit.of.measure, value.reported
data = [
    ("CC[C@H](C)[C@@H]1NC(=O)[C@H](Cc2cc3ccccc3[nH]2)NC(=O)CC2(CCCCC2)SSC[C@H](C(=O)N2CCC[C@H]2C(=O)N[C@@H](CCCN=C(N)N)C(=O)NCC(N)=O)NC(=O)[C@H](CC(N)=O)NC(=O)[C@H](CCC(N)=O)NC1=O", "nM/kg", 2),
]

Could you now look at the following molecule, please?
Exam item: Please provide the recorded ED for "CC(C)[C@@H]1NC(=O)[C@H](Cc2ccccc2)NC(=O)[C@@H](Cc2ccccc2)NC(=O)CC2(CCCCC2)SSC[C@H](C(=O)N2CCC[C@H]2C(=O)N[C@@H](CCCN=C(N)N)C(=O)NCC(N)=O)NC(=O)[C@H](CC(N)=O)NC1=O" , tested on UniProtKB P30560.
Marked response: 1.9

----------
tested.on: Vasopressin V1a receptor (Rattus norvegicus, UniProt P30560)
Sequence (P30560 whole entry): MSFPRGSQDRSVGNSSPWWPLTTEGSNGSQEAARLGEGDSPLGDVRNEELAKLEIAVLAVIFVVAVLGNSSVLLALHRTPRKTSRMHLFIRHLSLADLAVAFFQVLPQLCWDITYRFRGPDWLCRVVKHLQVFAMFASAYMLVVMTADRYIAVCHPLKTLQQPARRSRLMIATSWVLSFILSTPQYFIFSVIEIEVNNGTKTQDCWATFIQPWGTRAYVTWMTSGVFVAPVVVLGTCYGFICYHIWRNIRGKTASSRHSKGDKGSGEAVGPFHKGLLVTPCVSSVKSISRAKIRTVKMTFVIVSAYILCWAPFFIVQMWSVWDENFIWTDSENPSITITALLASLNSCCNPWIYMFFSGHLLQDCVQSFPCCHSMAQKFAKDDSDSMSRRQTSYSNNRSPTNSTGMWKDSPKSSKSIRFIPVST
experiment.notes: Anti-vasopressor activity at V1a receptor
recorded.conditions: read-out: pA2 (converted)
Reported Kb values for a set of molecules
Unit nM implied. Number only.

Examples with answers:
# structure, Kb / nM
measured = [
    ("CC[C@H](C)[C@@H]1NC(=O)[C@H](Cc2ccc(OC)cc2)NC(=O)CC2(CCCCC2)SSC[C@@H](C(=O)N2CCC[C@H]2C(=O)N[C@@H](CCCN)C(=O)N[C@@H](Cc2ccc(O)cc2)C(N)=O)NC(=O)[C@H](CC(N)=O)NC(=O)[C@H]([C@@H](C)O)NC1=O", 95.5),
    ("CCOc1ccc(C[C@H]2NC(=O)CC3(CCCCC3)SSC[C@@H](C(=O)N3CCC[C@H]3C(=O)N[C@@H](CCCN=C(N)N)C(=O)NCC(N)=O)NC(=O)[C@H](CC(N)=O)NC(=O)[C@H](C(C)C)NC(=O)[C@H](Cc3ccccc3)NC2=O)cc1", 6.03),
]

Could you now look at the following molecule, please?
Exam item: Please provide the recorded Kb for "CCOc1ccc(C[C@@H]2NC(=O)CC3(CCCCC3)SSC[C@@H](C(=O)N3CCC[C@H]3C(=O)N[C@@H](CCCN=C(N)N)C(=O)NCC(N)=O)NC(=O)[C@H](CC(N)=O)NC(=O)[C@H](C(C)C)NC(=O)[C@H](Cc3ccccc3)NC2=O)cc1" , tested on Vasopressin V1a receptor (Rattus norvegicus, UniProt P30560).
Marked response: 6.92

----------
Reported Antidiuretic activity values for a set of compounds
tested.on: Vasopressin V2 receptor (Rattus norvegicus) (UniProt Q00788)
Sequence (Q00788 whole entry): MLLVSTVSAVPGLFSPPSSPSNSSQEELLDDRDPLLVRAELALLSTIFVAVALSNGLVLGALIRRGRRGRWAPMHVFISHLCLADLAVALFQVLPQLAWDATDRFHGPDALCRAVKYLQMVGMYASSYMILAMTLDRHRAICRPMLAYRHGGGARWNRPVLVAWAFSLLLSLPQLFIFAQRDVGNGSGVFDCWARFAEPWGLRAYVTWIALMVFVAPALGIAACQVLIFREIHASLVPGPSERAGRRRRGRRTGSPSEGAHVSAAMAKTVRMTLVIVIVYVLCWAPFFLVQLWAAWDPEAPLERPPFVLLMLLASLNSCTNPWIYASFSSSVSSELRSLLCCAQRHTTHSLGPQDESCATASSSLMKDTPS
experiment.notes: Antidiuretic activity at V2 receptor.
recorded.conditions: Urine

Examples with answers:
# structure, Antidiuretic activity
measured = [
    ("N=C(N)NCCC[C@H](NC(=O)[C@@H]1CCCN1C(=O)[C@@H]1CSSC[C@H](N)C(=O)N[C@@H](Cc2ccc(O)cc2)C(=O)N[C@@H](Cc2ccccc2)C(=O)N[C@@H](CCC(N)=O)C(=O)N[C@@H](CC(N)=O)C(=O)N1)C(=O)NCC(N)=O", "323 U mg-1"),
    ("NC(=O)CC[C@@H]1NC(=O)[C@H](Cc2ccccc2)NC(=O)[C@H](Cc2ccc(O)cc2)NC(=O)[C@H](N)CSSC[C@H](C(=O)N2CCC[C@H]2C(=O)N[C@@H](CCCN=C(N)N)C(=O)NCC(N)=O)NC(=O)[C@H](CC(N)=O)NC1=O", "0.82 U mg-1"),
    ("CC[C@H](C)[C@@H]1NC(=O)[C@H](Cc2ccc(O)cc2)NC(=O)[C@@H](N)CSSC[C@@H](C(=O)N2CCC[C@H]2C(=O)N[C@@H](CC(C)C)C(=O)NCC(N)=O)NC(=O)[C@H](CC(N)=O)NC(=O)[C@H](CCC(N)=O)NC1=O", "4 U mg-1"),
]

Exam item: Please provide the recorded Antidiuretic activity for "CC[C@H](C)[C@@H]1NC(=O)[C@H](Cc2ccc(O)cc2)NC(=O)[C@H](N)CSSC[C@H](C(=O)N2CCC[C@H]2C(=O)N[C@@H](CC(C)C)C(=O)NCC(N)=O)NC(=O)[C@H](CC(N)=O)NC(=O)[C@H](CCC(N)=O)NC1=O" , tested on Vasopressin V2 receptor (Rattus norvegicus) (UniProt Q00788).
Marked response: < 0.002 U mg-1

Ref: ChEMBL document CHEMBL1128364
